target: purified recombinant human PDE9 (Homo sapiens); construct: FLAG; made in house; host or cells: baculovirus/Sf9; assay: PDE9 enzyme inhibition scintillation proximity assay ([3H]cGMP hydrolysis); type: biochemical; conditions: range the standard inhibitor was expected to fall in; read-out: IC50 of the standard
Sequence (O76083 whole entry): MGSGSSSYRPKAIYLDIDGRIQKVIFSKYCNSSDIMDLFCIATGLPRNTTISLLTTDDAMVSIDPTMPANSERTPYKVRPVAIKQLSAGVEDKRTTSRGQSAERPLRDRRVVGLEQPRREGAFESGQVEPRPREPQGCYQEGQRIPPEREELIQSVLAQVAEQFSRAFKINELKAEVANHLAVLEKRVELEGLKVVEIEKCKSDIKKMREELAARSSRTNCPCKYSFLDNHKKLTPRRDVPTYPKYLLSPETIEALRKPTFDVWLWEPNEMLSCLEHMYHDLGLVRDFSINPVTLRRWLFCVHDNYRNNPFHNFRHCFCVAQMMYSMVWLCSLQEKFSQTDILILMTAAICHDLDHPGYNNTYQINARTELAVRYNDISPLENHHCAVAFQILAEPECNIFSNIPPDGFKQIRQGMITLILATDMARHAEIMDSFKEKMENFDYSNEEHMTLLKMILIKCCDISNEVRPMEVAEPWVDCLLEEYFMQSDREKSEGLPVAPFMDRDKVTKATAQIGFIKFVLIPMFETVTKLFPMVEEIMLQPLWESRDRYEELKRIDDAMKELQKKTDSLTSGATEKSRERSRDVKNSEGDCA
readout_label: IC50

Sample CCCc1n[nH]c2c(=O)[nH]c(Cc3cccc(Br)c3)nc12 [standard, reference compound] ; IC50 observed: 30 to 50 nM
